Quick list: MIC per entry.
Tested on: Escherichia coli strain ATCC25922
Assay: Standard microdilution MIC assay, E. coli
Format: cell-based

// solved cases for MIC follow
Hi! What's the reported MIC for COCCN1[C@H](CCNC(C)=N)CCC[C@H]1c1ccc(-n2cc3cc(-c4cc(CCC[C@H](C)N)cc(Cl)c4F)[nH]c3nc2=O)cc1 on Escherichia coli strain ATCC25922?
≤ 16 µg/mL

Hi! What's the reported MIC for CSc1cc(-n2cc3cc(-c4cc(CCC[C@@H](N)C5CC5)cc(OC(F)(F)F)c4F)[nH]c3nc2=O)ccc1[C@@H]1CCC[C@@H](CCNC(C)=N)N1 on Escherichia coli strain ATCC25922?
≤ 16 µg/mL

Please find the next compound below.
Hi! What's the reported MIC for CC(=N)NCC[C@@H]1CCC[C@@H](c2ccc(-n3cc4cc(-c5cc(CCC[C@@H]6COCCN6)cc(Cl)c5F)[nH]c4nc3=O)cc2F)N1 on Escherichia coli strain ATCC25922?
≤ 16 µg/mL

---

Quick list: MIC per entry.
Tested on: E. coli DH10B
Assay: CLSI broth microdilution MIC, E. coli DH10B recipient
Format: cell-based
Conditions: Escherichia coli, read-out: MIC
Express it in µg/mL; write the number only.

// solved cases for MIC follow
Entry C[C@H](N)CCCc1cc(Cl)c(F)c(-c2cc3cn(-c4ccc([C@@H]5CCC[C@@H](CCNC(=N)CN)N5)cc4)c(=O)nc3[nH]2)c1 [RX-04D] : reported MIC = ?
1

Entry C[C@H](N)CCCc1cc(OC(F)(F)F)c(F)c(-c2cc3cn(-c4ccc([C@@H]5CCC[C@@H](CCNC(=N)N)N5)cc4)c(=O)nc3[nH]2)c1 [RX-04A] : reported MIC = ?
0.25

Entry N=C(N)NCC[C@@H]1CCC[C@@H](c2ccc(-n3cc4cc(-c5cc(CCC[C@@H](N)CO)cc(Cl)c5F)[nH]c4nc3=O)cc2F)N1 [RX-04C] : reported MIC = ?
0.5

New cases:
Entry CSc1cc(-n2cc3cc(-c4cc(CCC[C@@H](N)C5CC5)cc(Cl)c4F)[nH]c3nc2=O)ccc1[C@@H]1CCC[C@@H](CCNC(=N)N)N1 [RX-04B] : reported MIC = ?
0.5
